Molecular target: T1, biotinylated CRH (human and mouse, not fully specified; biotinylated, position not stated)
T1 construct: also called Biotin-CRH; biotin-labeled CRH
T1 peptide: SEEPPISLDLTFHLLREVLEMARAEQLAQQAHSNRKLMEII
Assay: competitive ELISA, coated 1st mAb; competitor PR006152
Endpoint Label: % Inhibition (%)
// units = %; emit number, no label

INSERT INTO measurements (binder, measurement_unit, recorded_number) VALUES
  ('PR302069 (antibody, human IgG1, kappa, V domains shown, Humanized variant of PR301777) VH: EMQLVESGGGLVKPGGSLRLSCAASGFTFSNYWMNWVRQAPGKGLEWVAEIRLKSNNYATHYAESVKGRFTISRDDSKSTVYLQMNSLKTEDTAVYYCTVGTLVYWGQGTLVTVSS VL: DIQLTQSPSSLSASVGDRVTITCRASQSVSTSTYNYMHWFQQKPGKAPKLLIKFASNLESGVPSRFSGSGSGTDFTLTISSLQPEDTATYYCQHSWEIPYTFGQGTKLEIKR', '%', 94),
  ('PR302055 (antibody, human IgG1, kappa, V domains shown, Humanized variant of PR301777) VH: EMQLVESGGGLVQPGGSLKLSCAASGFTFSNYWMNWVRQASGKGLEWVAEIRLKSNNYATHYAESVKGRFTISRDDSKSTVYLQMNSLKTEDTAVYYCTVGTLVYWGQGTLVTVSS VL: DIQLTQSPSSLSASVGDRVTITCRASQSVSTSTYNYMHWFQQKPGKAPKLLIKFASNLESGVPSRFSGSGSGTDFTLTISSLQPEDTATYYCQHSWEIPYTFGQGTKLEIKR', '%', 95),
  ('PR302064 (antibody, human IgG1, kappa, V domains shown, Humanized variant of PR301777) VH: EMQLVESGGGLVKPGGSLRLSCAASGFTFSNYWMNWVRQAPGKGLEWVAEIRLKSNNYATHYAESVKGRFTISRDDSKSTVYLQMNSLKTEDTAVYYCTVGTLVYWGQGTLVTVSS VL: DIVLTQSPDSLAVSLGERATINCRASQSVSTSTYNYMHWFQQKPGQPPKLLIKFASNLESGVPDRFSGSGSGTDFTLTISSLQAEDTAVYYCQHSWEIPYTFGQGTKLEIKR', '%', 94);

% Inhibition measured on PR302050 (antibody, human IgG1, kappa, V domains shown, Humanized variant of PR301777) VH: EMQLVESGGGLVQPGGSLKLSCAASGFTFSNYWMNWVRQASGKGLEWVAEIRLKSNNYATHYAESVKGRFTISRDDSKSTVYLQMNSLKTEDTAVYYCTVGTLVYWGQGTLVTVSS VL: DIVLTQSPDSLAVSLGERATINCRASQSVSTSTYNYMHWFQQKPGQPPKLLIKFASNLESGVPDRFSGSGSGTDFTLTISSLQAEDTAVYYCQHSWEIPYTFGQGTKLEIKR = 96
